test system: U-251; assay: NCI tumour cell line growth inhibition, 48 h
The source made the active and inactive calls. Cut-off read from the data, not from the text of the source: active = GI50 up to about 1.1 µM and inactive = higher.
Write down one outcome, taken from true = active, false = inactive

{"compound": "C/C=C1\\Oc2ccc(OC)cc2S1(=O)=O", "tested_on": "U-251", "label_class": "false"}
{"compound": "COc1cccc2c1C1(O)C2CCCC12OCCCO2 (configuration not stated)", "tested_on": "U-251", "label_class": "false"}
{"compound": "COc1cccc2c1C(=O)c1c(O)c3c(c(O)c1C2=O)C[C@@](O)(C(=O)CO)CC3OC1CC(NCCOCC(OC(C)=O)OC(C)=O)C(O)C(C)O1 (some centres not stated)", "tested_on": "U-251", "label_class": "true"}
{"compound": "O=C1C(/C=C/c2ccc(Cl)cc2)=NNC2N1N=C1NC(=O)C3(NN12)c1ccccc1-c1ccccc13 (configuration not stated)", "tested_on": "U-251", "label_class": "false"}
{"compound": "COc1ccc(NC(=O)/C(CC2=Nc3ccc([N+](=O)[O-])cc3NC2O)=N\\NC(=O)C[N+](C)(C)C)c(OC)c1 (configuration not stated)", "tested_on": "U-251", "label_class": "false"}

stdin: Identify the outcome logged in this assay for the compound shown: Nc1nc(Br)nc2ncn(C3CC(O)C(CO)O3)c12 (configuration not stated)
stdout: false

stdin: Please let me know the test result on file for O=C(CC1(O)C(=O)Nc2ccccc21)c1ccc(O)cc1 (configuration not stated) .
stdout: false

====

test system: CCRF-CEM; experiment: NCI tumour cell line growth inhibition, 48 h
Calls of active or inactive are those of the source. No stated cut-off is given here; in the data, active = GI50 up to about 1.1 µM and inactive = higher.
Select the matching outcome among true = active, false = inactive

Some solved cases for reference:
{"molecule": "CCCOC(=O)C1C2CCC(O2)C1C(=O)O (stereo unspecified)", "label_class": "false"}
{"molecule": "CC1=NNC(=O)C1C1CC(c2c[nH]c3ccccc23)=NNC1=O (stereo unspecified)", "label_class": "false"}
{"molecule": "Cc1nc(-n2nc(-c3ccccc3)cc2-c2ccccc2)sc1C(/C=C/c1ccc([N+](=O)[O-])cc1)=N/NC(N)=S", "label_class": "false"}
{"molecule": "NC1CCC[C@H]1O (stereo partly specified)", "label_class": "false"}
{"molecule": "C[C@@]1(CO)[C@H](O)CC[C@@]2(C)[C@H]1CC[C@H]1C[C@@H]3C[C@@]12CC[C@@]3(O)COC(=O)CN", "label_class": "true"}

stdin: Recorded test call requested for CC(=O)OC(C)c1cc2c(s1)C(=O)c1scc(C(C)OC(C)=O)c1C2=O (stereo unspecified)
stdout: true

stdin: In this assay, the call recorded for O=C(CCc1cc(-c2ccco2)n(-c2ccc([N+](=O)[O-])cc2[N+](=O)[O-])n1)Nc1ccccc1 was what?
stdout: false

stdin: Field: outcome | Entry: COc1cc(OC)c2c(=O)c3cccc([N+](=O)[O-])c3n(C)c2c1
stdout: false

stdin: Look up the recorded call for CC1COC(c2cn[nH]c2C(N)=O)C1O (stereo unspecified) in this test.
stdout: false

stdin: Test call, this molecule: Oc1ccc2c(c1)-c1c(c3ccccc3n1CCN1CCOCC1)CC2
stdout: false

stdin: What is the recorded call for this molecule in the test? [N-]=[N+]=Nc1ccccc1-[n+]1noc([O-])c1Br
stdout: false

====

Hi there, I'd appreciate the recorded GI50 for every entry that follows.
test system: SK-MEL-5; test: NCI tumour cell line growth inhibition, 48 h
Activity calls are given as the source filed them. Cut-off read from the data, not from the text of the source: active = GI50 up to about 1.1 µM and inactive = higher.

{"compound": "C/C=C1\\Oc2ccc(OC)cc2S1(=O)=O", "tested_on": "SK-MEL-5", "test_result": "> 100 µM (inactive)"}
{"compound": "COc1ccc(CN(CCN(C)C)c2ccccn2)cc1.Cn1c(=O)c2[nH]c(Br)nc2n(C)c1=O", "tested_on": "SK-MEL-5", "test_result": "> 100 µM (inactive)"}
{"compound": "COc1ccc(C2C(C(=O)c3ccccc3)=C(O)C(O)(CC(=O)c3ccccc3)N2c2ccc(OC)cc2)cc1 (configuration not stated)", "tested_on": "SK-MEL-5", "test_result": "9.57 µM (inactive)"}
{"compound": "O=C1C2=C(c3ccccc31)C(c1ccccc1Cl)N1C(=O)CCSC1=N2 (configuration not stated)", "tested_on": "SK-MEL-5", "test_result": "> 100 µM (inactive)"}
{"compound": "COc1ccc(CC(COS(=O)(=O)c2ccc(C)cc2)NS(=O)(=O)c2ccc(C)cc2)cc1 (configuration not stated)", "tested_on": "SK-MEL-5", "test_result": "9.02 µM (inactive)"}
{"compound": "CC1(C)C(=O)C(O)=CC2C1=CCC1C2(C)C(=O)CC2(C)C(C(C)(O)C(=O)CC(O)C(C)(C)O)C(O)CC12C (configuration not stated)", "tested_on": "SK-MEL-5", "test_result": "2.84 µM (inactive)"}

Could you report GI50 for every entry in the following list?
1. O=C1NCC(CSc2nc3cc(C4CCCc5c4[nH]c4ccccc54)ccc3o2)N1 (configuration not stated)
2. Cc1c(C(=O)/C=C/C=C/c2ccccc2)[n+]([O-])c2ccccc2[n+]1[O-]
3. CCCC(=O)OC[n+]1ccc(-c2c(COC(=O)NC(C)C)c(COC(=O)NC(C)C)c3n2CCC3)cc1

stdout:
1. 28.5 µM (inactive)
2. 19.9 µM (inactive)
3. > 100 µM (inactive)

====

test system: SK-MEL-28; assay: NCI tumour cell line growth inhibition, 48 h
Activity calls are given as the source filed them. Cut-off read from the data, not from the text of the source: active = GI50 up to about 1.1 µM and inactive = higher.
quantity: GI50

{"molecule": "COc1cccc(NC(=O)CC(=O)NNCC(=O)Nc2nnc(-c3ccc(N(CCC#N)S(=O)(=O)c4ccccc4)cc3)s2)c1", "quantity": "GI50", "test_result": "55.7 µM (inactive)"}
{"molecule": "CC(=O)N1C(Nc2cccc3nc(C)ccc23)CCN1c1ccccc1 (stereo not given)", "quantity": "GI50", "test_result": "> 10 µM (inactive)"}
{"molecule": "CCCC/C=C1\\CCC(CN2CCCCC2)C1=O (stereo not given)", "quantity": "GI50", "test_result": "21.3 µM (inactive)"}
{"molecule": "O=C(CC1(O)C(=O)Nc2ccccc21)c1ccc(O)cc1 (stereo not given)", "quantity": "GI50", "test_result": "> 100 µM (inactive)"}

Form: molecule = O=S(=O)(O)c1cc(/N=N/c2c(O)ccc3ccccc23)ccc1/C=C/c1ccc(/N=N/c2c(O)ccc3ccccc23)cc1S(=O)(=O)O ; GI50 = > 100 µM (inactive)

====

system: SR; test: NCI tumour cell line growth inhibition, 48 h
Active and inactive are the calls of the source. Rule as the data show it: active = GI50 up to about 1.1 µM and inactive = higher.
Outcome (select one): class 1 = active, class 0 = inactive

{"compound": "OC(c1ccccc1)(c1ccccc1)c1ccccn1", "label_class": "class 0"}
{"compound": "C=CCN1CN(C2CCCCC2)CSC1=S", "label_class": "class 1"}
{"compound": "S=C1SCC2CCCN12 (configuration not stated)", "label_class": "class 0"}

stdin: Status in this test for O=[N+]([O-])C=C1c2ccccc2-c2ccccc21 ?
stdout: class 0

stdin: Short answer needed: outcome of this test for Nc1ccccc1/C(O)=C1/CCOC1=O ?
stdout: class 0

stdin: I'd appreciate the recorded outcome for C/C=C1/CCC2c3[nH]c4ccccc4c3CCN2C1 (configuration not stated) from this test.
stdout: class 0

stdin: Can you look up the reported call for CC(=O)Nc1ccc(/C=C/[N+](=O)[O-])cc1 for me?
stdout: class 1

====

system: SNB-78; assay: NCI tumour cell line growth inhibition, 48 h
Calls of active or inactive are those of the source. Cut-off read from the data, not from the text of the source: active = GI50 up to about 1.1 µM and inactive = higher.
Write down one outcome, taken from active, inactive

Solved entries:
{"compound": "O=C1/C(=C/c2ccc(Cl)cc2)CCC1CCN1CCOCC1 (configuration not stated)", "label_class": "inactive"}
{"compound": "[O-][S+](Cc1ccccc1)c1nc2ccccc2nc1-c1cccs1 (configuration not stated)", "label_class": "inactive"}
{"compound": "CN1C(=O)C2C=CC1C1CCC2N(C)C1=O (configuration not stated)", "label_class": "inactive"}
{"compound": "COc1cc(OC)c2c(=O)c3cccc([N+](=O)[O-])c3n(C)c2c1", "label_class": "inactive"}
{"compound": "CCCCC(=O)OC[n+]1ccc2c(C)c3[nH]c4ccccc4c3c(C)c2c1", "label_class": "active"}

stdin: Short answer needed: outcome of this test for O=C1OC(c2ccccc2)=N/C1=C/NC(Cc1c[nH]cn1)C(=O)O (configuration not stated) ?
stdout: inactive

stdin: Each compound tested received a call. Report the one for O=C(CC(=O)N1N=C(c2ccccc2)C(/N=N/c2ccc(C(=O)O)cc2)C1=O)Nc1ccc(F)cc1 (configuration not stated) .
stdout: inactive

stdin: Can you look up the reported call for CC(C)OC(=O)Nc1c([N+](=O)[O-])cc(C(F)(F)F)cc1[N+](=O)[O-] for me?
stdout: inactive

stdin: Call for entry CCCCCC/C=C1\CCC(CN2CCOCC2)C1=O (configuration not stated) :
stdout: inactive

stdin: Any idea what this test logged for CCCCCCCCCCCCCCCC(=O)OCC1OC(N2C(=O)/C(=N\NC(N)=S)c3ccc([N+](=O)[O-])cc32)C(OC(C)=O)C1OC(C)=O (configuration not stated) ?
stdout: inactive

stdin: Which outcome did this test record for the compound Cn1c(=O)cc2[nH]c3ccccc3n2c1=O ?
stdout: inactive

stdin: Look up the recorded call for Cc1nc(-n2nc(-c3ccccc3)cc2-c2ccccc2)sc1C(/C=C/c1ccc([N+](=O)[O-])cc1)=N/NC(N)=S in this test.
stdout: inactive

stdin: Per the records of this test, what outcome belongs to CCC(C)CN1C(=O)NC(C)(Cc2ccccc2)C1=O (configuration not stated) ?
stdout: inactive

stdin: Which outcome was assigned to O=C1CCC2(c3ccc(F)cc3)Nc3ncccc3N12 (configuration not stated) in this test?
stdout: inactive

stdin: Assay result, entry CCCCC(C(=O)C(=O)Nc1ccccc1CC)C(=O)C(C)C (configuration not stated) — outcome?
stdout: inactive

stdin: Record lookup: outcome of this test for CC1(C)C(=O)C(O)=CC2C1=CCC1C2(C)C(=O)CC2(C)C(C(C)(O)C(=O)CC(O)C(C)(C)O)C(O)CC12C (configuration not stated) ?
stdout: inactive

stdin: How was Cc1cc2c(=O)cc(-c3ccc(O)cc3)oc2c(C(=O)O)c1C classified in this test?
stdout: inactive

stdin: # outcome recorded in this test, key = COc1ccc(/C(Cl)=C(\C=O)c2ccc(Cl)c(Cl)c2)cc1OC
stdout: inactive

stdin: Could you please tell me the result logged for Cc1ccc(-c2cc(-c3ccco3)nc(N)n2)o1 in this assay?
stdout: inactive

stdin: Fill in: this test's call for CC1=NN(C(=O)c2ccc([N+](=O)[O-])cc2)C(=O)C1/N=N/c1ccccc1C(=O)O (configuration not stated) is ___
stdout: inactive

stdin: Short answer needed: outcome of this test for O=C(COc1ccc(/C=C/C(=O)c2ccc(Cl)cc2)cc1)Nc1c(Cl)cccc1Cl ?
stdout: inactive

stdin: I'd appreciate the recorded outcome for CN1CC2(CCCCC2)C(O)C12C=CCCC2 (configuration not stated) from this test.
stdout: inactive
